Reported values of Inhibition rate (%) for individual entries
molecular target: AChE (Musca domestica); experiment: biochemical; assay type: biochemical, fly; conditions: test concentration of the compound 10 μM
Sequence (Q7YWJ9 81-659): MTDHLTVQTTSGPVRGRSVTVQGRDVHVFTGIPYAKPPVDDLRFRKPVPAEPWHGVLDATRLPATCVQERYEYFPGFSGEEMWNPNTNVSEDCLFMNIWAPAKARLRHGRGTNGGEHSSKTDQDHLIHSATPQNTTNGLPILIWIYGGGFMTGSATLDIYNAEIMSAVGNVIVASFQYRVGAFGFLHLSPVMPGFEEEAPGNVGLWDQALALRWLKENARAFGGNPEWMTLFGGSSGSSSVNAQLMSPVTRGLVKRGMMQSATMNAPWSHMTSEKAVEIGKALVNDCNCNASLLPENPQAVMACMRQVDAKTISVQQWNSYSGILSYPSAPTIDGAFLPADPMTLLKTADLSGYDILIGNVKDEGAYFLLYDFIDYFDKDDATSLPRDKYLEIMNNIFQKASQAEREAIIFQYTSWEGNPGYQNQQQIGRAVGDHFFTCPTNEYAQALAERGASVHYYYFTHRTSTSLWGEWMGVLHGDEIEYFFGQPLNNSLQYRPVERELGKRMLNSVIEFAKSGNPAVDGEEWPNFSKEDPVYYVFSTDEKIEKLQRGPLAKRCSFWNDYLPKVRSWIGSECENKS

{"columns": ["compound", "value observed"],
 "data": [
  ["Cn1c2ccccc2c2cc[n+](-c3ccccc3Cl)cc21.[Br-] [Compound B5]", "38.5 ± 1.9 st %"]
]}

[in] Kindly indicate its recorded Inhibition rate (%). Item: Cc1ccc2c(c1)c1cc[n+](-c3ccccc3)cc1n2C.[Br-] [Compound B35]
[out] 88.6 ± 2.5 efg %

[in] Kindly indicate its recorded Inhibition rate (%). Item: COc1cccc(-[n+]2ccc3c4ccccc4n(C)c3c2)c1.[Br-] [Compound B18]
[out] 53.5 ± 0.4 op %

[in] Kindly indicate its recorded Inhibition rate (%). Item: CCCn1c2ccccc2c2cc[n+](-c3ccccc3)cc21.[Br-] [Compound B39, 9-Propyl-2-phenyl-β-carboline bromide]
[out] 78.8 ± 0.9 jk %

[in] Kindly indicate its recorded Inhibition rate (%). Item: Cn1c2c(c3ccccc31)CC[N+](c1ccc(I)cc1)=C2.[Br-] [Compound A13]
[out] 54.2 ± 3.2 ef %

[in] Kindly indicate its recorded Inhibition rate (%). Item: CCCn1c2c(c3ccccc31)CC[N+](c1ccccc1)=C2.[Br-] [Compound A39]
[out] 67.1 ± 2.4 c %

[in] Kindly indicate its recorded Inhibition rate (%). Item: Cn1c2ccccc2c2cc[n+](-c3ccc(C(F)(F)F)cc3)cc21.[Br-] [Compound B27]
[out] 91.4 ± 0.3 bcde %

[in] Kindly indicate its recorded Inhibition rate (%). Item: Cn1c2ccccc2c2cc[n+](-c3cccc(Cl)c3)cc21.[Br-] [Compound B6]
[out] 56.4 ± 2.5 no %

[in] Kindly indicate its recorded Inhibition rate (%). Item: Cn1c2cc(Cl)ccc2c2cc[n+](-c3ccccc3)cc21.[Br-] [Compound B37]
[out] 89.9 ± 0.7 def %

Data origin, for the record: paper PMC5784158
